target entity: band 3 (Homo sapiens)
assay name: 36Cl exchange flux inhibition in red blood cells, Dixon plots
Type: cell-based
test conditions: read-out: Average KoI (SE); pHo 9.9; 0°C
property label: pKd
Numbers only, as −log10 of the molar value.

(Q) Find the recorded pKd belonging to [I-].[K+] [iodide, potassium iodide] and report it.
(A) 2.25

* * *

target entity: band 3 (Homo sapiens, UniProt P02730)
assay name: 36Cl exchange flux inhibition in red blood cells, Dixon plots
Format: cell-based
test conditions: read-out: Average KoI (SE); pHo 11.6; 0°C
property label: Kd (mM)
Give bare numbers, in mM.

(Q) Under band 3 (Homo sapiens, UniProt P02730): Kd value of [I-].[K+] [iodide, potassium iodide] ?
(A) 35.8

* * *

target entity: band 3 (Homo sapiens, UniProt P02730)
assay name: 36Cl exchange flux inhibition in red blood cells, Dixon plots
Format: cell-based
test conditions: read-out: Average KoI (SE); pHo 8.0; 0°C
property label: Kd
Please format your answer as a value with the unit trailing.

(Q) Find the recorded Kd belonging to [I-].[K+] [iodide, potassium iodide] and report it.
(A) 450 µM

* * *

target entity: band 3 (Homo sapiens)
assay name: 36Cl exchange flux inhibition in red blood cells, Dixon plots
Assay type: cell-based
test conditions: read-out: Average KoI (SE); pHo 10.7; 0°C
property label: Kd (mM)
Numbers only, in mM.

(Q) Under band 3 (Homo sapiens): Kd value of [I-].[K+] [iodide, potassium iodide] ?
(A) 16.4

* * *

target entity: band 3 (Homo sapiens)
Sequence (P02730 1-911): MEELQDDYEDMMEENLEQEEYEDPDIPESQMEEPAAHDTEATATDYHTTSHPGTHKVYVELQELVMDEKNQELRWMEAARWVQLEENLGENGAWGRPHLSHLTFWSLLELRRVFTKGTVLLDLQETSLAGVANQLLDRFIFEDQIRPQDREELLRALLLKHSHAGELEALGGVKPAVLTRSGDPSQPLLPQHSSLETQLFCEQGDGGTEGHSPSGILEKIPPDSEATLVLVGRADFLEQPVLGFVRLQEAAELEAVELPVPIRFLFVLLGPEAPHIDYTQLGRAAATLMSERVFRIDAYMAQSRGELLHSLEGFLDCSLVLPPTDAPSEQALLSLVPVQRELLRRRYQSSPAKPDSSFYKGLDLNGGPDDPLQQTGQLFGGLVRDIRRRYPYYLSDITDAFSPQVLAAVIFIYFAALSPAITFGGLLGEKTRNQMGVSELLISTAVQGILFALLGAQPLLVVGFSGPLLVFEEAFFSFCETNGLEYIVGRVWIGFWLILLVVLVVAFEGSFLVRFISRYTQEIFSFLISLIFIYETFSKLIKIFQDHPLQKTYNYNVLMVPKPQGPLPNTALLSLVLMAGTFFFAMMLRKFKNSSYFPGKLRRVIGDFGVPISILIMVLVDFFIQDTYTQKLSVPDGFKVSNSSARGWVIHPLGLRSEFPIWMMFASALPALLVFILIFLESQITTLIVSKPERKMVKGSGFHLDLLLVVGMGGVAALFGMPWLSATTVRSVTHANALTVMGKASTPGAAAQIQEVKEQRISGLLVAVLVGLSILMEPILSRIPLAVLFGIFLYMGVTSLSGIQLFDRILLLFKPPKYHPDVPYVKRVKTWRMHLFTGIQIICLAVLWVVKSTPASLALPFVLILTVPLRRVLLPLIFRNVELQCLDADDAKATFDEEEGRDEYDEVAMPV
assay name: 36Cl exchange flux inhibition in red blood cells, Dixon plots
Format: cell-based
test conditions: read-out: Average KoI (SE); pHo 7.2; 0°C
property label: Kd (µM)
Give bare numbers, in µM.

(Q) Under band 3 (Homo sapiens): Kd value of [I-].[K+] [iodide, potassium iodide] ?
(A) 830
